EXPERIMENTAL_SETUP: in isopropanol, 303.15 K
MEASUREMENT_KIND: solubility (mole fraction)
Form field (numeric): enter value without unit.

Consider N[C@@H](Cc1ccccc1)C(=O)O . Its measured solubility (mole fraction) is 9.54e-05

----------
EXPERIMENTAL_SETUP: in n-propanol, 298.15 K
MEASUREMENT_KIND: solubility (mole fraction)

Consider N[C@@H](Cc1ccccc1)C(=O)O . Its measured solubility (mole fraction) is 4.63e-05

----------
EXPERIMENTAL_SETUP: in isobutanol, 313.15 K
MEASUREMENT_KIND: solubility (mole fraction)
Form field (numeric): enter value without unit.

Consider N[C@@H](Cc1ccccc1)C(=O)O . Its measured solubility (mole fraction) is 0.000224
